Tested on: RAC-beta serine/threonine-protein kinase (Homo sapiens), P31751 [S474D]
Sequence (P31751 whole entry S474D): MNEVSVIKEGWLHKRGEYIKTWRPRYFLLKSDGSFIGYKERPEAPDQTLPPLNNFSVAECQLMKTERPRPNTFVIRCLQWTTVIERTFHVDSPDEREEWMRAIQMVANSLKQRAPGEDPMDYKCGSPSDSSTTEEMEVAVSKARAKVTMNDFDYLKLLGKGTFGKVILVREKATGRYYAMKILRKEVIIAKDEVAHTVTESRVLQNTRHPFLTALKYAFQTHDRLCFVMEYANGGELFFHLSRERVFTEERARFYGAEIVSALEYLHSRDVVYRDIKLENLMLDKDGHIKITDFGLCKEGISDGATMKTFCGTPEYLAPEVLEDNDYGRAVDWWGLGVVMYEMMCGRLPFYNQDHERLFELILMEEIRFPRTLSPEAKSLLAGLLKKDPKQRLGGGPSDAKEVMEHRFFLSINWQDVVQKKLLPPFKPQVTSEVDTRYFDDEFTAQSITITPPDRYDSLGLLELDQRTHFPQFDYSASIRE
TEST: Inhibition of full length human Akt2 S474D mutant assessed as remaining activity at 1 uM using GRPRTSSFAEGKK as substrate incubated for 40 mins by scintillation counting method relative to control
QUANTITY_NAME: Activity (%)

Consider the worked cases shown below.
Record CC(C)NCC(C(=O)N1CCN(c2ncnc3sc4c(c23)CCN(C)C4)CC1)c1ccc(Br)cc1 (configuration not stated) , field Activity: 86

Recorded result, CCN1CCc2c(sc3ncnc(N4CCN(C(=O)C(CNC(C)C)c5ccc(Cl)cc5)CC4)c23)C1 (configuration not stated) , Activity: 82

Memo: CC(C)NCC(C(=O)N1CCN(c2ncnc3sc4c(c23)CCC4)CC1)c1ccc(F)cc1 (configuration not stated) , reported Activity: 104

Item: CC(C)NCC(C(=O)N1CCN(c2ncnc3sc4c(c23)CCN(C)C4)CC1)c1ccc(F)cc1 (configuration not stated) | Activity: 111

According to the records, this compound CC(C)NCC(C(=O)N1CCN(c2ncnc3sc4c(c23)CCN(C2CC2)C4)CC1)c1ccc(Cl)cc1 (configuration not stated) displays Activity of 71

Activity measured on CC(C)NCC(C(=O)N1CCN(c2ncnc3sc4c(c23)CCC4)CC1)c1ccc(Cl)cc1 (configuration not stated) = 57

(A) CCNCC(C(=O)N1CCN(c2ncnc3sc4c(c23)CCC4)CC1)c1ccc(Cl)cc1 (configuration not stated)
(B) CN1CCc2c(sc3ncnc(N4CCN(C(=O)C(CNC5CCCCC5)c5ccc(Cl)cc5)CC4)c23)C1 (configuration not stated)
[ask] Could you tell me which of these two has the smaller Activity figure? First: A Second: B Pick one and reply with its label.
[reply] A
(A: 58%, B: 88%)

(P) CC(C)NCC(C(=O)N1CCN(c2ncnc3sc4c(c23)CCOC4)CC1)c1ccc(Cl)cc1 (configuration not stated)
(Q) CCCCNCC(C(=O)N1CCN(c2ncnc3sc4c(c23)CCC4)CC1)c1ccc(Cl)cc1 (configuration not stated)
[ask] # query: argmin of Activity over P and Q Lab log: write the label of the selected item as the result.
[reply] Q
(Q: 56%, P: 81%)

(P) CC(C)NCC(C(=O)N1CCN(c2ncnc3sc4c(c23)CCN(C(=O)N(C)C)C4)CC1)c1ccc(Cl)cc1 (configuration not stated)
(Q) O=C(C(CNC1CCCCC1)c1ccc(Cl)cc1)N1CCN(c2ncnc3sc4c(c23)CCC4)CC1 (configuration not stated)
[ask] Sorting ascending by Activity, which comes first: P or Q ? When you have decided, please share the label of that item.
[reply] Q
(Q: 51%, P: 95%)
